Would you mind telling me the reported IC50, inhibition of IFN-γ release, PBMC, Native IL-18 (LPS/IL-12) of each entry?
# target or test system: T1, Native human IL-18 (human, UniProt Q14116 37-193)
# T1 sequence: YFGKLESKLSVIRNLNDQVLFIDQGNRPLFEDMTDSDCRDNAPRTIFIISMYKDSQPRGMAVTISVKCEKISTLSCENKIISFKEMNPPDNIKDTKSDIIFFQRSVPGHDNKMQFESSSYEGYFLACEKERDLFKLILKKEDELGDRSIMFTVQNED
# measurement description: cell-based or functional assay
Field format: number, assumed nM, no unit text.

Exercise: # input binder: MOR13361 (antibody, human IgG1, kappa, L234A L235A, V domains shown) VH: QVQLLESGGGLVQPGGSLRLSCAASGFTFSSYAIHWVRQAPGKGLEWVSTIQSSGENKFYADSVKGRFTISRDNSKNTLYLQMNSLRAEDTAVYYCARVMIGYGFDYWGQGTLVTVSS VL: DIQMTQSPSSLSASVGDRVTITCRASQSIFNYLNWYQQKPGKAPKLLIYDSSTLQSGVPSRFSGSGSGTDFTLTISSLQPEDFATYYCHQYSGLLFTFGQGTKVEIKR ; wanted: its IC50, inhibition of IFN-γ release, PBMC, Native IL-18 (LPS/IL-12)
Key: 0.5

Exercise: # input binder: MOR10579 (antibody, human IgG1, lambda, L234A L235A, V domains shown) VH: EVQLVQSGAEVKKPGSSVKVSCKASGGTFNSYAISWVRQAPGQGLEWMGWINPFYIGETFYAQKFQGRVTITADESTSTAYMELSSLRSEDTAVYYCARAAYHPLVFDNWGQGTLVTVSS VL: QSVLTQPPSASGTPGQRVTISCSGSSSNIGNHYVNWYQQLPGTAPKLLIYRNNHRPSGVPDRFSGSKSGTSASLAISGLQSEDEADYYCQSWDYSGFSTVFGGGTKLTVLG ; wanted: its IC50, inhibition of IFN-γ release, PBMC, Native IL-18 (LPS/IL-12)
Key: 0.3

Exercise: # input binder: MOR13347 (antibody, human IgG1, kappa, L234A L235A, V domains shown) VH: QVQLVQSGAEVKKPGSSVKVSCKASGGTFSTFSISWVRQAPGQGLEWMGGIIPIFGTANYAQKFQGRVTITADESTSTAYMELSSLRSEDTAVYYCARGGYGGYYYFDYWGQGTLVTVSS VL: DIQMTQSPSSLSASVGDRVTITCRASQSISNRLNWYQQKPGKAPKLLIYKGSTLQSGVPSRFSGSGSGTDFTLTISSLQPEDFATYYCQQHYQWLTTFGQGTKVEIKR ; wanted: its IC50, inhibition of IFN-γ release, PBMC, Native IL-18 (LPS/IL-12)
Key: 0.5
